# assayed-target: T1, hGITR.mmh (human)
# T1 construct: soluble monomeric construct; also called human (h) GITR.mmh; monomeric human GITR
# T1 chain: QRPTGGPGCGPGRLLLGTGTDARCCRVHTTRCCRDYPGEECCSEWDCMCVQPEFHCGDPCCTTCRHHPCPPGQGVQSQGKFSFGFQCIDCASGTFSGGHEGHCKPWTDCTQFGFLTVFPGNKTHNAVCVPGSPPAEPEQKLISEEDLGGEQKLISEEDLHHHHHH
# method-notes: SPR 37C, mAb capture
endpoint-name: t½

binder	data-value
H4H14528P (antibody, human IgG4, V domains shown, human IgG4 (H4H)) VH: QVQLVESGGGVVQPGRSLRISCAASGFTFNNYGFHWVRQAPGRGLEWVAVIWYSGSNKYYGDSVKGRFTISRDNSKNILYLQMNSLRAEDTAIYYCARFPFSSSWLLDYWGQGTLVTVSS VL: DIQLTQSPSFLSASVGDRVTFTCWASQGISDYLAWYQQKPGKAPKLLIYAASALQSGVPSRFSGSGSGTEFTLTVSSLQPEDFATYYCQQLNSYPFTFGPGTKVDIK	2.2 min
H1H14493P (antibody, human IgG1, V domains shown, human IgG1 (H1H)) VH: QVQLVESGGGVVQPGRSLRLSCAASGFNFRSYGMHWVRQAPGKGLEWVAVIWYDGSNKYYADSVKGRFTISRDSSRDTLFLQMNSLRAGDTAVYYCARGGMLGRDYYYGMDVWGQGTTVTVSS VL: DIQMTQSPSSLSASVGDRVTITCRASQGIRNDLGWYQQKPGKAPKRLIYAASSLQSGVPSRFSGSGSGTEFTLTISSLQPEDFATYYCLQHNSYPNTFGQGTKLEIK	4.6 min
H1H14474P (antibody, human IgG1, V domains shown, human IgG1 (H1H)) VH: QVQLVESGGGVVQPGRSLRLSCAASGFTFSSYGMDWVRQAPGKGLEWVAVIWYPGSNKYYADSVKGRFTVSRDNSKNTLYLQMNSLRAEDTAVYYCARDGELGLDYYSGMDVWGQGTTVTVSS VL: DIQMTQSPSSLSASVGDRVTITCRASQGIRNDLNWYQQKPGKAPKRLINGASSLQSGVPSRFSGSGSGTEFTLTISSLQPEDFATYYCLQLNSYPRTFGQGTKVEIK	9.9 min
